- Assay Comment: MRP1 drug-resistance reversers in H69AR cells – cell-based, doxorubicin co-treatment, pilot screen (AID 601)
- Measurement Context: H69AR cells, CellTiter-Glo, 72 h; compound alone cytotoxicity; at 10 µM
Measured viability by item
Write the number in % without appending the unit.

Below are worked cases with known answers.
Molecule: COc1cc(-n2nc(C)c3c2OC(N)=C(C#N)C3c2ccccc2)c(Cl)c(Br)c1O (centres undefined)
viability / %: 69.5

Molecule: CCC1(CC)C(=O)C(C)(C)C(=O)OC1c1cccs1 (centres undefined)
viability / %: 90.7

Molecule: COc1ccccc1CNC(=O)C1CCN(S(=O)(=O)N2CCCCC2)CC1
viability / %: 81.7

Kindly indicate its recorded viability. Item: COc1cccc2cc(C(=O)n3ccc(C)n3)c(=O)oc12
93.4

Provide one value: measured viability of COc1ccc(CCN2CCC(Nc3nc4ccccc4n3Cc3ccc(F)cc3)CC2)cc1
0.52
